Assay: NPC library primary testing for decreased DLD-1 cell viability via CellTiter-Glo (AID 1117346)
Settings: DLD-1 viability, CellTiter-Glo luminescence; at 20 µM (top of the series)
viability decrease (inhibition) values, listed per item
# unit: % | format: bare number

Below, each entry is followed by its recorded viability decrease (inhibition) result.
Give recorded viability decrease (inhibition). C=CCSCC1Nc2cc(Cl)c(S(N)(=O)=O)cc2S(=O)(=O)N1 (stereo unspecified)
1.8

Give recorded viability decrease (inhibition). c1ccc(CN(CC2=NCCN2)c2ccccc2)cc1
0.7

Give recorded viability decrease (inhibition). COc1ccc(CN(CCN(C)C)c2ccccn2)cc1
-34.8

Give recorded viability decrease (inhibition). CC(=O)OC/C=C(C)/C=C/C=C(C)/C=C/C1=C(C)CCCC1(C)C
-3.2

---
Give recorded viability decrease (inhibition). Cc1ccsc1/C=C/C1=NCCCN1C
87.6

Give recorded viability decrease (inhibition). COc1cc(OC)c(C(=O)CCCN2CCCC2)c(OC)c1
-31.7

====

Experiment: inhibition of endothelial tube formation, primary screen, imaging, VEGF stimulated, CD31 staining, tube area, NPC library (AID 1117340)
Conditions: VEGF-stimulated ADSC/ECFC co-culture, at 10 µM, stronger effect = higher value
assay_endpoint: tube area decrease (%)
# unit: % | format: bare number

Give recorded tube area decrease. CCOC(N)=O
14.2

Give recorded tube area decrease. Cc1ccnc2c1NC(=O)c1cccnc1N2C1CC1
-6.9

---
Give recorded tube area decrease. CC(C)N=C(N)/N=C(\N)Nc1ccc(Cl)cc1
1.9

Give recorded tube area decrease. CCn1cc(C(=O)O)c(=O)c2cc(F)c(N3CCNC(C)C3)c(F)c21 (stereo not drawn)
-13.3

Give recorded tube area decrease. Nc1ccc(S(=O)(=O)Nc2ccccn2)cc1
7.9

Give recorded tube area decrease. CCN(CC)CCOC(=O)C(Cc1cccc2ccccc12)CC1CCCO1 (stereo not drawn)
-1.6

Give recorded tube area decrease. C[C@@H]1C[C@H]2[C@@H]3C[C@H](F)C4=CC(=O)C=C[C@]4(C)[C@@]3(F)[C@@H](O)C[C@]2(C)[C@@]1(O)C(=O)CO
-2.9

Give recorded tube area decrease. Nc1ccc(C(=O)O)c(O)c1
15.9

Give recorded tube area decrease. Nc1nccs1
5.4

Give recorded tube area decrease. NCCS
-3.5

Give recorded tube area decrease. CCN1CCC[C@H]1CNC(=O)c1c(O)c(Cl)cc(Cl)c1OC
-4.8

Give recorded tube area decrease. COc1cc(/C=C/C(=O)CC(=O)/C=C/c2ccc(O)c(OC)c2)ccc1O
-1.2

Give recorded tube area decrease. O=c1[nH]cnc2c1ncn2[C@H]1CC[C@@H](CO)O1
-4.4

Give recorded tube area decrease. O=C(O)c1ccccc1OP(=O)(O)O
-18.8

Give recorded tube area decrease. O=C1c2c(O)cccc2Cc2cccc(O)c21
108

Give recorded tube area decrease. C[n+]1ccccc1/C=N/O
-4.4

Give recorded tube area decrease. CC1(C)O[C@H]2CC(=O)OC[C@]23[C@H]2CC[C@@]4(C)[C@H](c5ccoc5)OC(=O)[C@H]5O[C@]54[C@]2(C)C(=O)C[C@@H]13
16.3

Give recorded tube area decrease. CCCCC1C(=O)N(c2ccccc2)N(c2ccccc2)C1=O
0.7

Give recorded tube area decrease. COc1ccc2c(c1)c(CC(=O)OCC(=O)O)c(C)n2C(=O)c1ccc(Cl)cc1
-5.2

All figures here come from PubChem BioAssay.
